The reader will find pKd measurements below, all made with ubiquitin (Homo sapiens, UniProt P0CG47).
Quick note: pKd values are minus log10 of concentrations in mol/L.

Some molecules with recorded pKd:
1) Cc1cc(-c2ccc(/N=N/c3ccc4c(S(=O)(=O)O)cc(S(=O)(=O)O)c(N)c4c3O)c(C)c2)ccc1/N=N/c1ccc2c(S(=O)(=O)O)cc(S(=O)(=O)O)c(N)c2c1O
4.89
2) COc1cc(-c2ccc(/N=N/c3c(S(=O)(=O)O)cc4cc(S(=O)(=O)O)cc(N)c4c3O)c(OC)c2)ccc1/N=N/c1c(S(=O)(=O)O)cc2cc(S(=O)(=O)O)cc(N)c2c1O
4.22
3) COc1cc(-c2ccc(/N=N/c3ccc4c(S(=O)(=O)O)cc(S(=O)(=O)O)c(N)c4c3O)c(OC)c2)ccc1/N=N/c1ccc2c(S(=O)(=O)O)cc(S(=O)(=O)O)c(N)c2c1O
4.92
4) Nc1ccc2c(O)c(N=Nc3ccc(N=Nc4ccc(N=Nc5cc(S(=O)(=O)O)c6cccc(S(=O)(=O)O)c6c5)c5ccccc45)c4ccc(S(=O)(=O)O)cc34)c(S(=O)(=O)O)cc2c1
4.70
5) Cc1cc(-c2ccc(/N=N/c3c(S(=O)(=O)O)cc4cc(S(=O)(=O)O)cc(N)c4c3O)c(C)c2)ccc1/N=N/c1c(S(=O)(=O)O)cc2cc(S(=O)(=O)O)cc(N)c2c1O
4.11

Next molecule, pKd to be filled in.
Tell me reported pKd for Nc1c(/N=N/c2ccc(-c3ccc(/N=N/c4cc(S(=O)(=O)O)c5ccccc5c4N)cc3)cc2)cc(S(=O)(=O)O)c2ccccc12 , tested with ubiquitin (Homo sapiens, UniProt P0CG47). 4.84
